Entry source: patent US10973840B2

- System: HT1080 cancer cell line
- experimentNotes: MTT assay, doxorubicin with C2 or C2WY→AA peptide
- Assay type: cell-based
- experimentalContext: Homo sapiens, HT-1080, Experiment 2, with C2 20.0 μM, 1% O2
valueKind: IC50
Answer with the number, then the unit.

Which IC50 is listed for `COc1cccc2c1C(=O)c1c(O)c3c(c(O)c1C2=O)C[C@@](O)(C(=O)CO)C[C@@H]3O[C@H]1C[C@H](N)[C@H](O)[C@H](C)O1` ?
15.7 nM

* * *

- System: HT-1080 overexpressing NHE6^527-588 peptide
- experimentNotes: MTT cell viability assay in HT-1080 expressing NHE6^527-588 or scrambled peptide
- Assay type: cell-based, human
- experimentalContext: Homo sapiens, HT-1080, HT-1080 overexpressing NHE6^527-588 peptide, 1% O2; read-out: IC50 of doxorubicin
valueKind: pIC50
Remember, pIC50 is on a log scale: it is -log10 of the molar concentration.

GET /values?readout=pIC50&item= `COc1cccc2c1C(=O)c1c(O)c3c(c(O)c1C2=O)C[C@@](O)(C(=O)CO)C[C@@H]3O[C@H]1C[C@H](N)[C@H](O)[C@H](C)O1`
6.65
